- Tested on: DNA
- Assay procedure: Inhibition of RpoN-mediated GlnAp2 transcription in Escherichia coli XL-1 Blue expressing GFP assessed as decrease in GFP levels at 10 uM incubated for 4 hrs under minimal nitrogen media by fluorescence based assay relative to control
- Assay type: nucleic-acid assay
The source made the active and inactive calls. No cut-off for these calls is given here. Bridge positions count the residues as written; N and C are the ends. Square brackets hold non-standard residues; d marks the D form. Peptide text beside a SMILES is read from it. S5 = C=CCCC[C@](C)(N)C(=O)O; Nle = CCCC[C@H](N)C(=O)O; βAla = NCCC(=O)O

>  <Molecule>
CCCC[C@H](NC(=O)[C@H](CCC(=O)O)NC(=O)[C@H](CCCNC(=N)N)NC(=O)[C@]1(C)CCC/C=C\CCC[C@](C)(NC(=O)[C@H](CCCNC(=N)N)NC(=O)[C@H](CCCNC(=N)N)NC(=O)[C@H](C)NC(=O)[C@@H](NC(=O)[C@H](CCCCN)NC(=O)[C@H](Cc2ccccc2)NC(=O)CCNC(C)=O)C(C)C)C(=O)N[C@@H](C(C)C)C(=O)N[C@@H](C)C(=O)N[C@@H](CCCCN)C(=O)N1)C(=O)N[C@@H](CC(C)C)C(N)=O (Ac-[βAla]FKVARR[S5]VAK[S5]RE[Nle]L-NH2; staple (Z) 8-12)

>  <inhibition>
Active

$$$$
>  <Molecule>
CCCC[C@H](NC(=O)[C@H](CCC(=O)O)NC(=O)[C@H](CCCNC(=N)N)NC(=O)[C@H](Cc1ccc(O)cc1)NC(=O)[C@H](CCCCN)NC(=O)[C@H](C)NC(=O)[C@]1(C)CCC/C=C\CCC[C@](C)(NC(=O)[C@H](C)NC(=O)[C@H](CCCCN)NC(=O)[C@H](Cc2ccccc2)NC(=O)CCNC(C)=O)C(=O)N[C@@H](CCCNC(=N)N)C(=O)N[C@@H](CCCNC(=N)N)C(=O)N[C@@H]([C@@H](C)O)C(=O)N1)C(=O)N[C@@H](CC(C)C)C(N)=O (Ac-[βAla]FKA[S5]RRT[S5]AKYRE[Nle]L-NH2; staple (Z) 5-9)

>  <inhibition>
Active

$$$$

---

- Tested on: DNA
- Assay procedure: Inhibition of RpoN-mediated GlnAp2 transcription in Escherichia coli XL-1 Blue expressing GFP assessed as decrease in GFP levels at 10 uM incubated for 4 hrs under minimal nitrogen media by fluorescence based assay relative to control
- Assay type: nucleic-acid assay
Activity calls are given as the source filed them. The rule behind the calls is not given here. Bridge positions count the residues as written; N and C are the ends. Square brackets hold non-standard residues; d marks the D form. Peptide text beside a SMILES is read from it. S5 = C=CCCC[C@](C)(N)C(=O)O; Nle = CCCC[C@H](N)C(=O)O; Orn = NCCC[C@H](N)C(=O)O; βAla = NCCC(=O)O

>  <Molecule>
CCCC[C@H](NC(=O)[C@H](CCC(=O)O)NC(=O)[C@H](CCCNC(=N)N)NC(=O)[C@H](Cc1ccc(O)cc1)NC(=O)[C@H](CCCCN)NC(=O)[C@H](C)NC(=O)[C@]1(C)CCC/C=C\CCC[C@](C)(NC(=O)[C@@H](NC(=O)[C@H](CCCN)NC(=O)[C@H](Cc2ccccc2)NC(=O)CCNC(C)=O)C(C)C)C(=O)N[C@@H](CCCNC(=N)N)C(=O)N[C@@H](CCCNC(=N)N)C(=O)N[C@@H]([C@@H](C)O)C(=O)N1)C(=O)N[C@@H](CC(C)C)C(N)=O (Ac-[βAla]F[Orn]V[S5]RRT[S5]AKYRE[Nle]L-NH2; staple (Z) 5-9)

>  <inhibition>
Active

$$$$
>  <Molecule>
CCCC[C@H](NC(=O)[C@H](CCC(=O)O)NC(=O)[C@H](CCCNC(=N)N)NC(=O)[C@@H](Cc1ccc(O)cc1)NC(=O)[C@H](CCCCN)NC(=O)[C@H](C)NC(=O)[C@]1(C)CCC/C=C\CCC[C@](C)(NC(=O)[C@@H](NC(=O)[C@H](CCCCN)NC(=O)CCNC(C)=O)C(C)C)C(=O)N[C@@H](CCCNC(=N)N)C(=O)N[C@@H](CCCNC(=N)N)C(=O)N[C@@H]([C@@H](C)O)C(=O)N1)C(=O)N[C@@H](CC(C)C)C(N)=O

>  <inhibition>
Active

$$$$

Reference source: ChEMBL document CHEMBL5107971
